assay.notes: Displacement of [125I]-IMPY from amyloid beta (1 to 42) after 2 hrs by gamma counting
pKi: −log10 of the molar value.
assay.endpoint: pKi

[
  {
    "cpd.smiles": "Nc1ccc(C(=O)c2cc3cc(I)ccc3o2)cc1",
    "observed.result": 6.88
  },
  {
    "cpd.smiles": "CN(C)c1ccc(C(=O)c2cc3cc(I)ccc3o2)cc1",
    "observed.result": 8.18
  },
  {
    "cpd.smiles": "CNc1ccc(C(=O)c2cc3cc(I)ccc3o2)cc1",
    "observed.result": 7.46
  }
]

(a) CN(C)c1ccc(C(=O)c2cc3cc(Br)ccc3o2)cc1
(b) CNc1ccc(C(=O)c2cc3cc(Br)ccc3o2)cc1
(c) Nc1ccc(C(=O)c2cc3cc(Br)ccc3o2)cc1
Q) Order each entry by recorded pKi, climbing from the minimum. In your reply, arrange the labels in the requested order.
A) c, b, a

---

assay.notes: Lipophilicity, log D of the compound
Assay type: physicochemical
condition.set: octanol/water
assay.endpoint: logD
# output: bare number, no unit

Item: `CN(C)c1ccc(C(=O)c2cc3cc([125I])ccc3o2)cc1` | logD: 4.4
